Below are MIC values measured for Microsporum canis ATCC 10214.

[
  {
    "COMPOUND": "CCCCCC/C=C/[C@@H]1CCC(=O)[C@H]1CC(=O)O (relative stereo)",
    "UOM": "µg/mL",
    "MIC": 250
  },
  {
    "COMPOUND": "CCCCCC/C=C/[C@H]1CCC(=O)[C@@H]1CCCCC(=O)O (relative stereo) [9-oxo-6,7-dinor-13-trans-prostenoic acid]",
    "UOM": "µg/mL",
    "MIC": 250
  },
  {
    "COMPOUND": "CCCCCCC/C=C/[C@@H]1CCC(=O)[C@H]1CCCCCCC(=O)O (relative stereo) [20-methyl-9-oxo-13-trans-prostenoic acid]",
    "UOM": "µg/mL",
    "MIC": 100
  },
  {
    "COMPOUND": "O=C(O)CCCCCC[C@@H]1C(=O)CC[C@H]1/C=C/CCCCl (relative stereo)",
    "UOM": "µg/mL",
    "MIC": 250
  }
]

====

System: dl-PGE1-induced contraction of gerbil colon
Experiment: Inhibition of dl-PGE1-Induced Contraction of Gerbil Colon (prostaglandin antagonist action)
Format: cell-based, gerbils (Meriones unguiculatus)
Details: Meriones unguiculatus, 1 min; sub-maximal challenge, 20 ng./ml. dl-PGE1; 50% inhibition of maximum response; read-out: ID50 vs. 20 ng. of PGE1/ml.
The following compounds are shown together with reported IC50 values.

[
  {
    "COMPOUND": "O=C(O)CCCCCC[C@H]1C(=O)CC[C@@H]1/C=C/CCCCCCCl (relative stereo) [20-chloro-9-oxo-13-trans-prostenoic acid]",
    "IC50": "5 to 10 µg/mL"
  },
  {
    "COMPOUND": "CC(C)CC/C=C/[C@@H]1CCC(=O)[C@H]1CCCCCCC(=O)O (relative stereo)",
    "IC50": "0.25 to 0.5 µg/mL"
  },
  {
    "COMPOUND": "CCCCCC/C=C/[C@H]1CCC(=O)[C@@H]1CCCCCC(CC)C(=O)OCC (stereo partly drawn) [ethyl 9-oxo-2-ethyl-13-trans-prostenoate, ethyl 2-ethyl-9-oxo-13-trans-prostenoate]",
    "IC50": "10 to 25 µg/mL"
  },
  {
    "COMPOUND": "CC(C)/C=C/[C@H]1CCC(=O)[C@@H]1CCCCCCC(=O)O (relative stereo)",
    "IC50": "25 to 30 µg/mL"
  },
  {
    "COMPOUND": "CCOCCC/C=C/[C@@H]1CCC(=O)[C@H]1CCCCCCC(=O)O (relative stereo) [18-oxa-9-oxo-13-trans-prostenoic acid]",
    "IC50": "15 to 25 µg/mL"
  },
  {
    "COMPOUND": "CCCCCC/C=C/[C@H]1CCC(=O)[C@@H]1CCCCC(=O)O (relative stereo) [9-oxo-6,7-dinor-13-trans-prostenoic acid]",
    "IC50": "10 to 20 µg/mL"
  },
  {
    "COMPOUND": "CCC/C=C/[C@@H]1CCCC(=O)[C@H]1CCCCCCC(=O)O (relative stereo)",
    "IC50": "1 µg/mL"
  },
  {
    "COMPOUND": "CCCCCC/C=C/[C@H]1CCC(=O)[C@@H]1CCCCCCC(=O)O (relative stereo) [9-oxo-13-trans-prostenoic acid]",
    "IC50": "1.5 to 2 µg/mL"
  },
  {
    "COMPOUND": "CCCCCC/C=C/[C@@H]1CCC(=NO)[C@H]1CCCCCCC(=O)O (relative stereo) [9-oxo-13-trans-prostenoic acid 9-oxime, 9-Oxo-13-trans-prostenoic acid oxime]",
    "IC50": "1 to 2 µg/mL"
  }
]
